# Test system: LCLC-97TM1
# assay-name: relative viability (nuclei count vs DMSO), 5 days (fraction); higher = more cells survive
# reported-conditions: first compound 0.02 µM
What relative viability was measured for each of the following?

Examples with answers:
# molecule, relative viability
measured = [
    ("CN1CCN(CCOc2cc(OC3CCOCC3)c3c(Nc4c(Cl)ccc5c4OCO5)ncnc3c2)CC1 [Saracatinib] + COc1cc2c(Oc3ccc(NC(=O)C4(C(=O)Nc5ccc(F)cc5)CC4)cc3F)ccnc2cc1OCCCN1CCOCC1 [Foretinib] (partner 0.25 µM)", 1.06),
    ("CCNC(=O)c1noc(-c2cc(C(C)C)c(O)cc2O)c1-c1ccc(CN2CCOCC2)cc1 [Luminespib] + CS(=O)(=O)CCNCc1ccc(-c2ccc3ncnc(Nc4ccc(OCc5cccc(F)c5)c(Cl)c4)c3c2)o1 [Lapatinib] (partner 2 µM)", 0.318),
    ("CCNC(=O)c1noc(-c2cc(C(C)C)c(O)cc2O)c1-c1ccc(CN2CCOCC2)cc1 [Luminespib] + CC(C)C[C@H](NC(=O)[C@H](Cc1ccccc1)NC(=O)c1cnccn1)B(O)O [Bortezomib] (partner 0.002 µM)", 0.638),
]

I have 3 molecules here; please give me relative viability for each one.
1. CN1CCN(CCOc2cc(OC3CCOCC3)c3c(Nc4c(Cl)ccc5c4OCO5)ncnc3c2)CC1 [Saracatinib] + NC(=O)Nc1cc(-c2cccc(F)c2)sc1C(=O)N[C@H]1CCCNC1 [AZD7762] (partner 0.2 µM)
2. CN1CCN(CCOc2cc(OC3CCOCC3)c3c(Nc4c(Cl)ccc5c4OCO5)ncnc3c2)CC1 [Saracatinib] + Nc1nc2[nH]cc(CCc3ccc(C(=O)N[C@@H](CCC(=O)O)C(=O)O)cc3)c2c(=O)[nH]1 [Pemetrexed] (partner 0.2 µM)
3. CN1CCN(CCOc2cc(OC3CCOCC3)c3c(Nc4c(Cl)ccc5c4OCO5)ncnc3c2)CC1 [Saracatinib] + CS(=O)(=O)CCNCc1ccc(-c2ccc3ncnc(Nc4ccc(OCc5cccc(F)c5)c(Cl)c4)c3c2)o1 [Lapatinib] (partner 2 µM)

Reply:
[0.294, 0.18, 1.34]

I have 2 molecules here; please give me relative viability for each one.
1. CN1CCN(CCOc2cc(OC3CCOCC3)c3c(Nc4c(Cl)ccc5c4OCO5)ncnc3c2)CC1 [Saracatinib] + COc1cccc2cc(-c3nc([C@H]4CC[C@H](C(=O)O)CC4)n4ncnc(N)c34)[nH]c12 [OSI-027] (partner 0.5 µM)
2. CN1CCN(CCOc2cc(OC3CCOCC3)c3c(Nc4c(Cl)ccc5c4OCO5)ncnc3c2)CC1 [Saracatinib] + C[C@]1(O)C[C@@H](c2nc(-c3ccc4ccc(-c5ccccc5)nc4c3)c3c(N)nccn32)C1 [Linsitinib] (partner 1 µM)

Reply:
[0.696, 0.17]

====

# System: BEN
# assay-name: relative viability (nuclei count vs DMSO), 5 days (fraction); higher = more cells survive
# reported-conditions: first compound 0.003162 µM
What relative viability was measured for each of the following?

Examples with answers:
# molecule, measured-parameter, experimental-value
data = [
    ("Cc1cn(-c2cc(NC(=O)c3ccc(C)c(Nc4nccc(-c5cccnc5)n4)c3)cc(C(F)(F)F)c2)cn1 [Nilotinib] + Cc1cc(Nc2cc(N3CCN(C)CC3)nc(Sc3ccc(NC(=O)C4CC4)cc3)n2)n[nH]1 [Tozasertib] (partner 0.1 µM)", "relative viability", 0.494),
    ("Cc1cn(-c2cc(NC(=O)c3ccc(C)c(Nc4nccc(-c5cccnc5)n4)c3)cc(C(F)(F)F)c2)cn1 [Nilotinib] + CS(=O)(=O)CCNCc1ccc(-c2ccc3ncnc(Nc4ccc(OCc5cccc(F)c5)c(Cl)c4)c3c2)o1 [Lapatinib] (partner 2 µM)", "relative viability", 0.74),
    ("Cc1cn(-c2cc(NC(=O)c3ccc(C)c(Nc4nccc(-c5cccnc5)n4)c3)cc(C(F)(F)F)c2)cn1 [Nilotinib] + O=C(c1cc(Cc2n[nH]c(=O)c3ccccc23)ccc1F)N1CCN(C(=O)C2CC2)CC1 [Olaparib] (partner 8 µM)", "relative viability", 1.1),
]

I have 3 molecules here; please give me relative viability for each one.
1. Cc1cn(-c2cc(NC(=O)c3ccc(C)c(Nc4nccc(-c5cccnc5)n4)c3)cc(C(F)(F)F)c2)cn1 [Nilotinib] + O=C(CCCCCCC(=O)Nc1ccccc1)NO [Vorinostat] (partner 1 µM)
2. Cc1cn(-c2cc(NC(=O)c3ccc(C)c(Nc4nccc(-c5cccnc5)n4)c3)cc(C(F)(F)F)c2)cn1 [Nilotinib] + Nc1nc2[nH]cc(CCc3ccc(C(=O)N[C@@H](CCC(=O)O)C(=O)O)cc3)c2c(=O)[nH]1 [Pemetrexed] (partner 0.2 µM)
3. Cc1cn(-c2cc(NC(=O)c3ccc(C)c(Nc4nccc(-c5cccnc5)n4)c3)cc(C(F)(F)F)c2)cn1 [Nilotinib] + COc1cccc2cc(-c3nc([C@H]4CC[C@H](C(=O)O)CC4)n4ncnc(N)c34)[nH]c12 [OSI-027] (partner 0.5 µM)

Reply:
[0.556, 0.715, 0.285]

====

What relative viability was measured for each of the following?
# Test system: NCI-H1563
# assay-name: relative viability (nuclei count vs DMSO), 5 days (fraction); higher = more cells survive
# reported-conditions: first compound 2 µM
Numbers only.

Examples with answers:
# compound, relative viability
records = [
    ("Cc1csc(=NC2CCCCC2)n1/N=C/c1ccc(O)c(O)c1O [MIM1] + C[C@]1(O)C[C@@H](c2nc(-c3ccc4ccc(-c5ccccc5)nc4c3)c3c(N)nccn32)C1 [Linsitinib] (partner 1 µM)", 1.1),
    ("CN1CCN(CCOc2cc(OC3CCOCC3)c3c(Nc4c(Cl)ccc5c4OCO5)ncnc3c2)CC1 [Saracatinib] + COc1cccc2cc(-c3nc([C@H]4CC[C@H](C(=O)O)CC4)n4ncnc(N)c34)[nH]c12 [OSI-027] (partner 0.5 µM)", 0.711),
    ("Cc1csc(=NC2CCCCC2)n1/N=C/c1ccc(O)c(O)c1O [MIM1] + Cc1nc(Nc2ncc(C(=O)Nc3c(C)cccc3Cl)s2)cc(N2CCN(CCO)CC2)n1 [Dasatinib] (partner 0.075 µM)", 0.43),
]

Item: Cc1csc(=NC2CCCCC2)n1/N=C/c1ccc(O)c(O)c1O [MIM1] + COc1cc2c(Oc3ccc(NC(=O)C4(C(=O)Nc5ccc(F)cc5)CC4)cc3F)ccnc2cc1OCCCN1CCOCC1 [Foretinib] (partner 0.25 µM) | relative viability: 0.866

====

# System: NCI-H1793
# assay-name: relative viability (nuclei count vs DMSO), 5 days (fraction); higher = more cells survive
# reported-conditions: first compound 0.6325 µM
What relative viability was measured for each of the following?
One number for each entry.

Examples with answers:
# compound, relative viability
measured = [
    ("Cc1csc(=NC2CCCCC2)n1/N=C/c1ccc(O)c(O)c1O [MIM1] + C[C@]1(O)C[C@@H](c2nc(-c3ccc4ccc(-c5ccccc5)nc4c3)c3c(N)nccn32)C1 [Linsitinib] (partner 1 µM)", 0.902),
    ("CN1CCN(CCOc2cc(OC3CCOCC3)c3c(Nc4c(Cl)ccc5c4OCO5)ncnc3c2)CC1 [Saracatinib] + Nc1ncn([C@H]2C[C@H](O)[C@@H](CO)O2)c(=O)n1 [Decitabine] (partner 2 µM)", 0.504),
    ("CN1CCN(CCOc2cc(OC3CCOCC3)c3c(Nc4c(Cl)ccc5c4OCO5)ncnc3c2)CC1 [Saracatinib] + Cc1nc(NC(=O)N2CCC[C@H]2C(N)=O)sc1-c1ccnc(C(C)(C)C(F)(F)F)c1 [Alpelisib] (partner 2 µM)", 0.793),
]

Now for another entry.
Item: CN1CCN(CCOc2cc(OC3CCOCC3)c3c(Nc4c(Cl)ccc5c4OCO5)ncnc3c2)CC1 [Saracatinib] + Nc1nc2[nH]cc(CCc3ccc(C(=O)N[C@@H](CCC(=O)O)C(=O)O)cc3)c2c(=O)[nH]1 [Pemetrexed] (partner 0.2 µM) | relative viability: 0.743

====

What relative viability was measured for each of the following?
# System: NCI-H441
# assay-name: relative viability (nuclei count vs DMSO), 5 days (fraction); higher = more cells survive
# reported-conditions: first compound 20 µM

Examples with answers:
# compound, subject-of-test, relative viability
data = [
    ("Cc1csc(=NC2CCCCC2)n1/N=C/c1ccc(O)c(O)c1O [MIM1] + Cc1nc(NC(=O)N2CCC[C@H]2C(N)=O)sc1-c1ccnc(C(C)(C)C(F)(F)F)c1 [Alpelisib] (partner 2 µM)", "NCI-H441", 0.187),
    ("Cc1csc(=NC2CCCCC2)n1/N=C/c1ccc(O)c(O)c1O [MIM1] + CC(C)C[C@H](NC(=O)[C@H](Cc1ccccc1)NC(=O)c1cnccn1)B(O)O [Bortezomib] (partner 0.002 µM)", "NCI-H441", 0.171),
    ("Cc1csc(=NC2CCCCC2)n1/N=C/c1ccc(O)c(O)c1O [MIM1] + N=C(N)NC(=N)NCCc1ccccc1 [Phenformin] (partner 250 µM)", "NCI-H441", 0.203),
    ("Cc1csc(=NC2CCCCC2)n1/N=C/c1ccc(O)c(O)c1O [MIM1] + CC1(C)CCC(c2ccc(Cl)cc2)=C(CN2CCN(c3ccc(C(=O)NS(=O)(=O)c4ccc(N[C@H](CCN5CCOCC5)CSc5ccccc5)c(S(=O)(=O)C(F)(F)F)c4)cc3)CC2)C1 [Navitoclax] (partner 0.5 µM)", "NCI-H441", 0.24),
    ("Cc1csc(=NC2CCCCC2)n1/N=C/c1ccc(O)c(O)c1O [MIM1] + NC(=O)Nc1cc(-c2cccc(F)c2)sc1C(=O)N[C@H]1CCCNC1 [AZD7762] (partner 0.2 µM)", "NCI-H441", 0.386),
    ("Cc1csc(=NC2CCCCC2)n1/N=C/c1ccc(O)c(O)c1O [MIM1] + Cc1nc(Nc2ncc(C(=O)Nc3c(C)cccc3Cl)s2)cc(N2CCN(CCO)CC2)n1 [Dasatinib] (partner 0.075 µM)", "NCI-H441", 0.262),
]

Item: Cc1csc(=NC2CCCCC2)n1/N=C/c1ccc(O)c(O)c1O [MIM1] + Nc1ncn([C@H]2C[C@H](O)[C@@H](CO)O2)c(=O)n1 [Decitabine] (partner 2 µM) | relative viability: 0.178
